src = ChEMBL document CHEMBL5058577

Tested on: U2OS
procedure text: Multiplex assay against U2OS
Assay type: toxicity, cell-based
test settings: human, 24 h, 10 µM, compound concentration 10 uM, replicate 1
Output rule met for Population Fragmented Nuclei (%) not less than 20%; output rule not met otherwise.

molecule	target	classification
COc1cc(NC(=O)CCN2CCC(OC(=O)Nc3ccccc3-c3ccccc3)CC2)c(Cl)cc1CNC[C@H](O)c1ccc(O)c2[nH]c(=O)ccc12	U2OS	rule met
CC(=O)NCCc1c(Cc2ccccc2)[nH]c2ccccc12	U2OS	rule met
N[C@@]1(C(=O)O)CO[C@H]2[C@H](C(=O)O)[C@H]21	U2OS	rule met
c1cc(OCCCN2CCCCC2)ccc1CN1CCCCC1	U2OS	rule met
CC[C@H]1OC(=O)[C@H](C)[C@@H](O[C@H]2C[C@@](C)(OC)[C@@H](O)[C@H](C)O2)[C@H](C)[C@@H](O[C@@H]2O[C@H](C)C[C@H](N(C)C)[C@H]2O)[C@@]2(C)CC(C)=C(O2)[C@H](C)[C@@H](O)[C@]1(C)O	U2OS	rule met
CCNC1(C(N)=O)CCN(c2ncnc3c2nc(-c2ccccc2Cl)n3-c2ccc(Cl)cc2)CC1	U2OS	rule met

Query: Is reported Population Fragmented Nuclei (%) greater than or equal to 20% here: Cc1ccccc1C(=O)Nc1ccc(C(=O)N2CCCC(N(C)C)c3ccccc32)cc1.Cl (stereo not given)
Reply: rule not met

Query: And what about the molecule CC1(COc2ccc3c(c2)ncn3-c2ccc3cccc(N4CCC(N)CC4)c3n2)COC1 ?
Reply: rule met

Query: What would you report for CC(C)(C)c1ccc(S(=O)(=O)Nc2ccc(Cl)cc2C(=O)c2cc[n+]([O-])cc2)cc1 ?
Reply: rule met

Query: Next entry: CCCC(CCC)C(=O)O
Reply: rule met

Query: What would you report for CSCC[C@H](NC=O)C(=O)N[C@@H](CC(C)C)C(=O)N[C@@H](Cc1ccccc1)C(=O)O ?
Reply: rule met

Query: And then COc1cc(C(=O)N(CCCc2ccccc2)Cc2ccc(CC(=O)O)cc2)cc(OC)c1C , what is it?
Reply: rule not met

Query: Please answer likewise for Cc1ccc(F)cc1C(=O)Nc1ccc(C(=O)N2Cc3cccn3Cc3ccccc32)c(Cl)c1
Reply: rule met

Query: What do you get for N#Cc1c(N)nc(SCc2csc(-c3ccc(Cl)cc3)n2)c(C#N)c1-c1ccc(OCCO)cc1 ?
Reply: rule met

Query: Can you handle CCOc1c2c(c(OCC)c3ncccc13)CN(c1ccc(CS(=O)(=O)NC(=O)Cc3ccccc3OC)cc1C)C2=O next?
Reply: rule met

Query: Again, but for CN(C)CCCc1cc(C(=O)Nc2ccc(-c3ccncc3)cc2)ccc1O.Cl.Cl
Reply: rule met

Query: Try this molecule next: Cc1nc2ccc(Oc3ccc(F)cc3)cc2c(=O)n1C[C@H]1CCCN(C(C)C)C1.Cl
Reply: rule met

Query: Same lookup for Cc1ccc(C(C)(O)c2nc3ccccc3s2)c(C)c1 (stereo not given) , please.
Reply: rule met

Query: How about this molecule: CN1CCN2c3ncccc3Cc3ccccc3C2C1 (stereo not given)
Reply: rule not met

Query: What do we get for O=C1COc2nccc(-c3ccccc3F)c2CN1Cc1cc(C(F)(F)F)cc(C(F)(F)F)c1 ?
Reply: rule met

Query: Next up: CN(C)c1ccnc2sc3c(=O)n(N4CCCCCC4)cnc3c12
Reply: rule met

Query: Please give the result for O=C(NCCO)c1cccc(-c2cc(Nc3ccc(OC(F)(F)F)cc3)ncn2)c1 too.
Reply: rule met

Query: Moving on to COc1c(C)cc(NC(=O)c2nn(Cc3ccc(F)cc3)c3c2CN(C(=O)c2ccc[nH]2)C[C@]3(C)C(N)=O)cc1C
Reply: rule met

Query: Also O=C(NCC(=O)N1CC[C@H](N[C@H]2CC[C@@](O)(c3ccc(-c4ncccn4)cn3)CC2)C1)c1cccc(C(F)(F)F)c1 ?
Reply: rule met

---

System: U2OS
procedure text: Multiplex assay against U2OS
Format: toxicity, cell-based
test settings: human, 24 h, 1 µM, compound concentration 1 uM, replicate 1
Overview of reported Population Normal (%) across a group of compounds:
Respond numerically; units are % and should not be typed.

Illustrative cases are given below, each with its answer.
compound	endpoint unit	Population Normal (%)
CC[C@H]1OC(=O)[C@H](C)[C@@H](O[C@H]2C[C@@](C)(OC)[C@@H](O)[C@H](C)O2)[C@H](C)[C@@H](O[C@@H]2O[C@H](C)C[C@H](N(C)C)[C@H]2O)[C@@]2(C)CC(C)=C(O2)[C@H](C)[C@@H](O)[C@]1(C)O	%	95
COc1c(C)cc(NC(=O)c2nn(Cc3ccc(F)cc3)c3c2CN(C(=O)c2ccc[nH]2)C[C@]3(C)C(N)=O)cc1C	%	94
COc1cc(NC(=O)CCN2CCC(OC(=O)Nc3ccccc3-c3ccccc3)CC2)c(Cl)cc1CNC[C@H](O)c1ccc(O)c2[nH]c(=O)ccc12	%	97

Query: Bench note: what Population Normal (%) did CCCn1c(=O)c2[nH]c(C3CCCC3)nc2n(CCC)c1=O show?
Reply: 96

Query: Same thing, different compound: Cc1ccc(F)cc1C(=O)Nc1ccc(C(=O)N2Cc3cccn3Cc3ccccc32)c(Cl)c1
Reply: 98

---

Measured Population Fragmented Nuclei (%) values are reported for all entries that follow.
Tested on: U2OS
procedure text: Multiplex assay against U2OS
Format: toxicity, cell-based
test settings: human, 48 h, 1 µM, compound concentration 1 uM, replicate 2
Return type: number; implicit unit %.

Before answering, review these 6 worked examples.
>>> df
                                   compound  endpoint_unit  measured_value
0  CN1CCN2c3ncccc3Cc3ccccc3C2C1 (centres undefined) [MIRTAZAPINE]              %              20
1  CSCC[C@H](NC=O)C(=O)N[C@@H](CC(C)C)C(=O)N[C@@H](Cc1ccccc1)C(=O)O              %              18
2  O=C(O)c1cc2ccccc2c(Cc2c(O)c(C(=O)O)cc3ccccc23)c1O [PAMOIC ACID]              %              11
3  O=C(O)Cc1ccccc1Nc1c(Cl)cccc1Cl [DICLOFENAC]              %              15
4  Cc1ccc(F)cc1C(=O)Nc1ccc(C(=O)N2Cc3cccn3Cc3ccccc32)c(Cl)c1 [LIXIVAPTAN]              %              10
5  c1cc(OCCCN2CCCCC2)ccc1CN1CCCCC1 [JNJ-5207852]              %              19

Query: For O=C(NCC(=O)N1CC[C@H](N[C@H]2CC[C@@](O)(c3ccc(-c4ncccn4)cn3)CC2)C1)c1cccc(C(F)(F)F)c1 [PF-4136309] , what is its reported Population Fragmented Nuclei (%)?
Reply: 12

Query: And what about the compound Cc1ccc(-c2ccc(F)cc2COc2ccc(CCC(=O)O)cc2)cc1 ?
Reply: 15

Query: Also COc1ccc2c(c1)C(C(=O)N(Cc1ccc(N(C)C)cc1)c1ccc(C(C)C)cc1)CCC2.Cl (centres undefined) ?
Reply: 17

Query: Now the compound O=S(=O)(c1ccccc1)c1cnc2c(N3CCNCC3)cccc2c1 [INTEPIRDINE]
Reply: 13

---

Tested on: Fibroblast
procedure text: Multiplex assay against human fibroblast
Type: toxicity, cell-based
test settings: 24 h, 10 µM, compound concentration 10 uM, replicate 2
metric: Population Healthy Nuclei (%)
# value in %; strip the unit string

>>> df
              structure_smiles_string      target  endpoint_unit  measured_value
0  Cc1ccc(/C(=C\CN2CCCC2)c2ccccn2)cc1  Fibroblast              %              52

Query: # input molecule: O=C(NCCO)c1cccc(-c2cc(Nc3ccc(OC(F)(F)F)cc3)ncn2)c1 ; wanted: its Population Healthy Nuclei (%)
Reply: 36

Query: // query: CSCC[C@H](NC=O)C(=O)N[C@@H](CC(C)C)C(=O)N[C@@H](Cc1ccccc1)C(=O)O
Reply: 38

Query: What would you report for C[C@H]1[C@H]2CC[C@H]3[C@@H]4CC=C5C[C@@H](N(C)C)CC[C@]5(C)[C@H]4CC[C@]23CN1C ?
Reply: 39

---

System: Fibroblast
procedure text: Multiplex assay against human fibroblast
Format: toxicity, cell-based
test settings: 12 h, 1 µM, compound concentration 1 uM, replicate 1
yes if Population Mitochondria Different-Phenotype (%) is below 7%. no if not; exact matches included in no.

Reference set (3 entries):
>>> df
                                   compound  classification
0  CN1CCN2c3ncccc3Cc3ccccc3C2C1 (stereo not given)             yes
1  COc1c(C)cc(NC(=O)c2nn(Cc3ccc(F)cc3)c3c2CN(C(=O)c2ccc[nH]2)C[C@]3(C)C(N)=O)cc1C              no
2  N[C@@]1(C(=O)O)CO[C@H]2[C@H](C(=O)O)[C@H]21             yes

For the next question, use this compound.
Query: Given CCOc1c2c(c(OCC)c3ncccc13)CN(c1ccc(CS(=O)(=O)NC(=O)Cc3ccccc3OC)cc1C)C2=O , is recorded Population Mitochondria Different-Phenotype (%) strictly lower than 7%?
Reply: yes
